- Measured Target: Metabotropic glutamate receptor 8 (Rattus norvegicus) (UniProt P70579)
- Sequence (P70579 whole entry, looked up): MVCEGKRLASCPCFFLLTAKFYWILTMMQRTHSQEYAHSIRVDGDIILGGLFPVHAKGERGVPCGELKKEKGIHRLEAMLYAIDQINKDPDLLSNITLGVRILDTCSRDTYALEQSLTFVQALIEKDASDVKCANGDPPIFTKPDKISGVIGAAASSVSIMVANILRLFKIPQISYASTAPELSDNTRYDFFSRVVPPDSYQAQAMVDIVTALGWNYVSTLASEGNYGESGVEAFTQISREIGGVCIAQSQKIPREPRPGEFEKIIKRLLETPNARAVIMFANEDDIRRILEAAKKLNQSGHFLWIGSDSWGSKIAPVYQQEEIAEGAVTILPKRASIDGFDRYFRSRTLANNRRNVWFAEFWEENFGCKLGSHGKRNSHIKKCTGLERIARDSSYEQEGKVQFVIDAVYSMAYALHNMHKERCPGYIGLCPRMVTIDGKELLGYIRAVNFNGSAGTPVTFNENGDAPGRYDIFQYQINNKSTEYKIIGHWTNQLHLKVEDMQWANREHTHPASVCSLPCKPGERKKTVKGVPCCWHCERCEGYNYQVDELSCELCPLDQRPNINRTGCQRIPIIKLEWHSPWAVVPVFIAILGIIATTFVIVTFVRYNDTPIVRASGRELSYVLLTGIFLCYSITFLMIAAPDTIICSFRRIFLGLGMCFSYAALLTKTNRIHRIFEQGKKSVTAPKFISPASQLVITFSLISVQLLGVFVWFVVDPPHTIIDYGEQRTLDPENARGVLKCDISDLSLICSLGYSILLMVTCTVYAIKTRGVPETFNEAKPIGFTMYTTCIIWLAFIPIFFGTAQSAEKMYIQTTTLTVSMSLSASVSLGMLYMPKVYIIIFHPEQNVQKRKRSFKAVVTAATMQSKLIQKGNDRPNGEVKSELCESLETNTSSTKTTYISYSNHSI
- Protocol Text: mGluR8 Gi/Go-coupled signaling modulation – cell-based, rat, thallium flux, HTS, primary screen (AID 488969)
- Test Settings: HEK293 rat mGluR8, GIRK thallium flux, FluoZin2; at 10 µM; stronger effect = higher value; submaximal glutamate (EC20) added with thallium
Over roughly 110,000 compounds, “z-score” has its median near -0.1; the highest 2% begin near 2. The entries come from a sample that favours the highest values as a whole.
Test Readout: z-score
Give the figure only, with no unit attached.

- Compound: "CCC1CCCCN1S(=O)(=O)c1ccc(C(=O)Nc2nnc(-c3ccccc3Cl)o2)cc1 (stereo not given)"
  Readout Number: 1.12
- Compound: "CCc1sc(C(=O)Nc2ccc(F)cc2C)cc1C"
  Readout Number: -0.0957
- Compound: "COc1ccccc1NS(=O)(=O)c1ccc(C)c(NC(=O)c2ccc(S(=O)(=O)N3CCCCCC3)cc2)c1"
  Readout Number: -0.106
- Compound: "Cc1ccc(C2C(/C=C3/SC(=S)NC3=O)=C(c3cccs3)Oc3ccccc32)cc1 (stereo not given)"
  Readout Number: 2.55
- Compound: "CNC(=S)N/N=C(\\C)c1ccc(C)c(C)c1"
  Readout Number: 1.2
- Compound: "Cc1cc(C)c2cccc(NC(=S)NC(=O)c3ccccc3)c2n1"
  Readout Number: 0.2
- Compound: "O=C(Nc1cccc(F)c1)c1ccccc1-c1ccccc1"
  Readout Number: -0.369
- Compound: "COCCCNC(=O)c1ccc(N2CCCC2)c(NS(=O)(=O)c2ccc(C)cc2)c1"
  Readout Number: 0.547

INPUT: Provide only the value of recorded z-score for `COc1ccccc1-n1c(=O)[nH]c2c(C(N)=O)nc(C3CCCCC3)nc21`
OUTPUT: -0.356

INPUT: Provide only the value of recorded z-score for `Cc1cc(/C=C(\C#N)C(=O)Nc2ccccc2)c(C)n1-c1ccc2c(c1)OCO2`
OUTPUT: -0.335

INPUT: Provide only the value of recorded z-score for `COc1ccccc1NC(=O)c1cccnc1`
OUTPUT: 0.226

INPUT: Provide only the value of recorded z-score for `CCOC(=O)c1cc(C(C)=O)c(=O)n(C)c1N`
OUTPUT: -0.198

INPUT: Provide only the value of recorded z-score for `C=C(C)CNC(=S)N/N=C(\C)c1ccc(-n2ccnc2)cc1`
OUTPUT: -0.342

* * *

- Measured Target: Metabotropic glutamate receptor 8 (Rattus norvegicus)
- Protocol Text: mGluR8 Gi/Go-coupled signaling modulation – cell-based, rat, thallium flux, HTS, primary screen (AID 488969)
- Test Settings: HEK293 rat mGluR8, GIRK thallium flux, FluoZin2; at 10 µM; stronger effect = higher value; submaximal glutamate (EC20) added with thallium
The full ranking holds about 110,000 compounds; the median of “z-score” is about -0.1, and the highest 2% start at about 2. Shown is part of a subset that was picked to be rich in the highest values.
Returns one of Y or N; Y when z-score is >= -0.09.

INPUT: Could you verify whether the entry CCOc1ccc(C(=O)NCC(=O)OC2CCOC2=O)cc1OCC (stereo unspecified) shows z-score of no less than -0.09?
OUTPUT: N

INPUT: Could you verify whether the entry `Cc1cccc(NC(=O)CN2C(=O)N/C(=C/c3ccc(C)o3)C2=O)c1` shows z-score of no less than -0.09?
OUTPUT: Y

INPUT: Could you verify whether the entry `CC(=O)Nc1ccc(Oc2ncccn2)cc1` shows z-score of no less than -0.09?
OUTPUT: Y

INPUT: Could you verify whether the entry `CC(=O)Nc1ccc(Oc2cnccn2)cc1` shows z-score of no less than -0.09?
OUTPUT: N

INPUT: Could you verify whether the entry `CCOC(=O)Cc1csc(NC(=S)NC(=O)c2ccccc2C)n1` shows z-score of no less than -0.09?
OUTPUT: Y

INPUT: Could you verify whether the entry `CCOC(=O)Cc1csc(NC(=S)NC(=O)c2ccccc2Br)n1` shows z-score of no less than -0.09?
OUTPUT: Y

INPUT: Could you verify whether the entry `CCOC(=O)Cc1csc(NC(=O)c2ccc(Br)o2)n1` shows z-score of no less than -0.09?
OUTPUT: Y

INPUT: Could you verify whether the entry `O=C(c1ccc(CNc2c(NC3CCCCC3)c(=O)c2=O)cc1)N1CCc2ccccc21` shows z-score of no less than -0.09?
OUTPUT: N

INPUT: Could you verify whether the entry `Cc1cc2c(cc1C)NC(=O)CC(C(F)(F)C(F)(F)C(F)(F)F)=N2` shows z-score of no less than -0.09?
OUTPUT: N

INPUT: Could you verify whether the entry `CCN1CCN(C(=O)c2ccc3c(=O)n(C4CCCC4)c(=S)[nH]c3c2)CC1` shows z-score of no less than -0.09?
OUTPUT: Y

INPUT: Could you verify whether the entry CC(c1ccc(F)cc1)n1c(-c2ccc3ccccc3n2)n[nH]c1=S (stereo unspecified) shows z-score of no less than -0.09?
OUTPUT: Y

* * *

- Measured Target: Metabotropic glutamate receptor 8 (Rattus norvegicus) (UniProt P70579)
- Protocol Text: mGluR8 Gi/Go-coupled signaling modulation – cell-based, rat, thallium flux, HTS, primary screen (AID 488969)
- Test Settings: HEK293 rat mGluR8, GIRK thallium flux, FluoZin2; at 10 µM; stronger effect = higher value; submaximal glutamate (EC20) added with thallium
The full ranking holds about 110,000 compounds; the median of “z-score” is about -0.1, and the highest 2% start at about 2. Many of the other results were omitted from the sample, so the highest values are more common in it than they were.
Returns one of yes (1) or no (0); yes (1) when z-score is >= -0.07.

- Compound: "O=c1c2cc(Br)ccc2nc(-c2cccc(C(F)(F)F)c2)n1O"
  Class: "yes (1)"

INPUT: Could you verify whether the entry CC1(C)NC(=O)N(CC(O)COc2ccc(-c3ccccc3)cc2)C1=O (configuration not stated) shows z-score of no less than -0.07?
OUTPUT: yes (1)

INPUT: Could you verify whether the entry `CC(=NCCCN(C)C)C1=C(O)c2ccccc2C1=O` shows z-score of no less than -0.07?
OUTPUT: yes (1)

INPUT: Could you verify whether the entry O=C(NCC1CCCO1)C(c1cccs1)N(Cc1cccs1)C(=O)Cn1nnc(-c2cccs2)n1 (configuration not stated) shows z-score of no less than -0.07?
OUTPUT: no (0)

INPUT: Could you verify whether the entry Cc1ccc(OCC(O)CN2C(=O)NC(C)(C)C2=O)cc1 (configuration not stated) shows z-score of no less than -0.07?
OUTPUT: no (0)

INPUT: Could you verify whether the entry `O=C(Nc1ccc(C(F)(F)F)cc1)c1cc(-c2cccnc2)nc2ccc(Br)cc12` shows z-score of no less than -0.07?
OUTPUT: yes (1)

INPUT: Could you verify whether the entry N#Cc1ccc(-c2ccc(OCC(O)Cn3nnc4ccccc43)cc2)cc1 (configuration not stated) shows z-score of no less than -0.07?
OUTPUT: no (0)

INPUT: Could you verify whether the entry `O=C(NCc1cccs1)c1cnn2cccnc12` shows z-score of no less than -0.07?
OUTPUT: yes (1)

INPUT: Could you verify whether the entry `O=c1c2ccc(Cl)cc2nc(-c2cccc(C(F)(F)F)c2)n1O` shows z-score of no less than -0.07?
OUTPUT: yes (1)

* * *

- Measured Target: Metabotropic glutamate receptor 8 (Rattus norvegicus)
- Protocol Text: mGluR8 Gi/Go-coupled signaling modulation – cell-based, rat, thallium flux, HTS, primary screen (AID 488969)
- Test Settings: HEK293 rat mGluR8, GIRK (G protein-gated inwardly rectifying potassium channel) thallium flux, FluoZin2; at 10 µM; stronger effect = higher value; submaximal glutamate (EC20) added with thallium
Whole data set: some 110,000 compounds, median “z-score” near -0.1, cut for the highest 2% near 2. This excerpt belongs to a sample that is enriched for the highest values.
Returns one of T or F; T when z-score is >= 0.3.

- Compound: "O=C(c1ccccc1)c1ccc(OCC(O)CN2CCOCC2)cc1 (configuration not stated)"
  Class: "F"
- Compound: "Cc1cc(=O)n2[nH]c(-c3ccccc3)cc2n1"
  Class: "F"
- Compound: "Cc1ccccc1OCC(=O)N/N=C/c1cccn1C"
  Class: "T"

INPUT: Could you verify whether the entry O=C(c1ccccc1)c1ccc(OCC(O)CN2CCCCC2)cc1 (configuration not stated) shows z-score of no less than 0.3?
OUTPUT: T

INPUT: Could you verify whether the entry OC(COc1ccc(OCc2ccccc2)cc1)CN1CCCCC1 (configuration not stated) shows z-score of no less than 0.3?
OUTPUT: T

INPUT: Could you verify whether the entry `O=c1cc(-c2ccccc2)[nH][nH]1` shows z-score of no less than 0.3?
OUTPUT: F

INPUT: Could you verify whether the entry `Cc1cccc(C)c1OCC(=O)N/N=C/c1cccn1C` shows z-score of no less than 0.3?
OUTPUT: F
